# measured.on: hSTING(R232) (Homo sapiens, UniProt Q86WV6, H232R)
# Sequence (Q86WV6 whole entry H232R): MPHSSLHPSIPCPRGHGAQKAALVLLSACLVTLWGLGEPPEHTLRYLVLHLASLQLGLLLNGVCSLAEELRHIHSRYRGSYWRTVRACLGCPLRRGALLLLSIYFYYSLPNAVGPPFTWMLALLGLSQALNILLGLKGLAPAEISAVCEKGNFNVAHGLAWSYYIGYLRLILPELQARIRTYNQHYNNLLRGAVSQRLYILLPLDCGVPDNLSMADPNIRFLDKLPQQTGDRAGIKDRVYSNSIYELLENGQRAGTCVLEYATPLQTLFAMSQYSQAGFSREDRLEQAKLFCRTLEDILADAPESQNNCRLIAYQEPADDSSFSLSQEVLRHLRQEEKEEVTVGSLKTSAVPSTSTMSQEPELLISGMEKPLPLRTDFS
# test.summary: Luciferase reporter assay in HEK293T-hSTING-Luciferase cells, R232 (wild type) human STING
# Type: cell-based
# experimental.context: 20 hr stimulation, read-out: R232 human activity (EC50 range)
# Text: Stable Cell Line Generation • a) Stable STING expressing cells—Stable HEK293T STING-expressing cell lines were generated using plasmids purchased from Invivogen, CA, USA, that contain STING cDNA cloned into the pUNO-1 vector under hEF1-HTLV promoter and containing the Blasticidin selection cassette. […]

compound: Cc1nc(CN2C(=O)N(C)Cc3ccc(C(=O)NCc4c(F)cc(F)cc4F)cc32)co1
measured.on: hSTING(R232) (Homo sapiens, UniProt Q86WV6, H232R)
EC50: > 10 µM

compound: C[C@H]1c2ccc(C(=O)NCc3c(F)cc(F)cc3F)cc2N(Cc2c(Cl)c[nH]c(=O)c2F)C(=O)N1C
measured.on: hSTING(R232) (Homo sapiens, UniProt Q86WV6, H232R)
EC50: > 10 µM

compound: C[C@H]1c2ccc(C(=O)NCc3c(F)cc(F)cc3F)cc2N(Cc2ncccc2F)C(=O)N1C
measured.on: hSTING(R232) (Homo sapiens, UniProt Q86WV6, H232R)
EC50: < 1 µM

compound: CN1Cc2ccc(C(=O)NCc3ccc4cnn(C)c4c3)cc2N(Cc2c(F)cccc2Cl)C1=O
measured.on: hSTING(R232) (Homo sapiens, UniProt Q86WV6, H232R)
EC50: > 10 µM

compound: Cc1cccc(CN2C(=O)N(C)Cc3ccc(C(=O)NCc4c(F)cc(F)cc4F)cc32)c1F
measured.on: hSTING(R232) (Homo sapiens, UniProt Q86WV6, H232R)
EC50: < 1 µM
